# inhibition annotations
- Assay System: Toll-like receptor 7 (Homo sapiens)
- Test Details: Inhibition of human TLR7 expressed in HEK293 cells assessed as decrease in R848-induced NF-kappaB activation-mediated SEAP production at 40 uM after 24 hrs by Quanti-blue-based assay relative to control
- Type: cell-based
Give just the number in %; leave the unit off.

>>> reported_value("O=C(NNC(=O)c1csc(-c2cccnc2)n1)c1ccccn1")
86

Need inhibition of CCCCCCNC(=O)c1ccc(C(=O)NNC(=O)c2nccnc2N)cc1 , thanks.
17

Need inhibition of CC(C)c1nc(C(=O)NNC(=O)c2ccccn2)cs1 , thanks.
94.2

* * *

- Assay System: UniProt Q9NYK1
- Sequence (Q9NYK1 whole entry): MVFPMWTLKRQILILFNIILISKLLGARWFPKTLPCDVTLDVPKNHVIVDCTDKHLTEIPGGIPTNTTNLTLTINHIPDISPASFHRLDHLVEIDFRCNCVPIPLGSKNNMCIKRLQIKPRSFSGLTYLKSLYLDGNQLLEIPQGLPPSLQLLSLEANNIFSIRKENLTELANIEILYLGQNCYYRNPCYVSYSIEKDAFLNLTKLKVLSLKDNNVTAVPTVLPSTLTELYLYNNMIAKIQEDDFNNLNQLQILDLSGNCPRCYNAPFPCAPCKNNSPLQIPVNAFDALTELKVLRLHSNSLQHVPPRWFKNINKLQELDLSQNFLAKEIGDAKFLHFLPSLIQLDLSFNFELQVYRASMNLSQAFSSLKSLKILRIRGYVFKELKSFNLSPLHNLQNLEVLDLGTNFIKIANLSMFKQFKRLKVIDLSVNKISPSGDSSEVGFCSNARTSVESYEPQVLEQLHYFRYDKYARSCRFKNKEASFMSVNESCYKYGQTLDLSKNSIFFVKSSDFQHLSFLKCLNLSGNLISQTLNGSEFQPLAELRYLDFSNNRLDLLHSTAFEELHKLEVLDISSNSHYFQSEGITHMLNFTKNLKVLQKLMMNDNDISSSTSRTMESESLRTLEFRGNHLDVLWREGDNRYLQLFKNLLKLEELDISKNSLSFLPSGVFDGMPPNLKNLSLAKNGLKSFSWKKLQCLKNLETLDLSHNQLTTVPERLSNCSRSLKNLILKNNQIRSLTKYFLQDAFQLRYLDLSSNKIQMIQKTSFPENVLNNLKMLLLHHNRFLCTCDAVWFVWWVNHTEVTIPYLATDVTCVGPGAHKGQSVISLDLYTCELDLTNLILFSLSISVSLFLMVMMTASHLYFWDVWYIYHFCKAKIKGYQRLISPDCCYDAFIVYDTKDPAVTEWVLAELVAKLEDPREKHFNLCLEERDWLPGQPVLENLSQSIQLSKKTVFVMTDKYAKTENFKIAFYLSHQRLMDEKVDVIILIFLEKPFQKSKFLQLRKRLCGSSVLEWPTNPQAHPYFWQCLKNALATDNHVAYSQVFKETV
- Test Details: Inhibition of human TLR7 expressed in HEK293 cells assessed as decrease in R848-induced NF-kappaB activation-mediated SEAP production at 40 uM after 24 hrs by Quanti-blue-based assay relative to control
- Assay type: cell-based
Values of inhibition greater than or equal to 20% map to yes (1); values below map to no (0).

>>> label("COC(=O)c1ccc(C(=O)NNC(=O)c2nccnc2N)cc1")
"no (0)"
>>> label("O=C(NNC(=O)c1ccccn1)c1ccc(Cl)cc1")
"yes (1)"
>>> label("Cc1nc(C(=O)NNC(=O)c2cccc(Br)c2)cs1")
"yes (1)"
>>> label("Nc1nccnc1C(=O)NNC(=O)c1ccc(OC(F)(F)F)cc1")
"yes (1)"
>>> label("CC(C)c1cc(C(=O)NNC(=O)c2ccc(Cl)cc2)[nH]n1")
"no (0)"
>>> label("O=C(NNC(=O)c1ncccc1O)c1ccc(C(F)(F)F)cc1")
"yes (1)"
>>> label("Nc1ncc(Br)nc1C(=O)NNC(=O)c1cccc(C(F)(F)F)c1")
"no (0)"
>>> label("Cc1ccc2c(Cl)c(C(=O)NNC(=O)c3ccc(Cl)cc3)sc2c1")
"no (0)"
>>> label("Cc1ncc(C(=O)NNC(=O)c2ccc(Cl)cc2)s1")
"no (0)"
>>> label("Nc1nccnc1C(=O)NNC(=O)c1c(Cl)cccc1Cl")
"yes (1)"

I'd appreciate it if you could say whether COc1cccc(C(=O)NNC(=O)c2csc(C)n2)c1 has inhibition at least equal to 20%.
yes (1)

I'd appreciate it if you could say whether COC(=O)c1cccc(C(=O)NNC(=O)c2csc(C)n2)c1 has inhibition at least equal to 20%.
no (0)

All values here come from ChEMBL document CHEMBL4190396.
